Form field: normalized growth (one value per entry).
assay: chemical genetic growth profiling, strain panel (AID 1159580);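 further: tested at 20 µM; growth read once vehicle control cultures reached saturation at 30 °C; 1 = growth at the plate median or of vehicle wells; lower values mean less growth of the strain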; settings: S. cerevisiae deletion strains, growth OD, locus YDR162C, strain NBP2, active compounds read low
The campaign covered roughly 5,500 compounds. About 2,000 (36%) were called active. Not shown: some 18% with an inconclusive outcome. This is one part of the list.
Give your answer as a number; write no unit.

normalized growth measured on OCC(O)C(O)C(O)CO (stereo unspecified) = 0.971

normalized growth measured on COc1cc2c(cc1OC)C1C(=O)c3c(O)cc4c(c3OC1CO2)C=CC(C)(C)O4 (stereo unspecified) = 1

normalized growth measured on `CCOC(=O)[C@H](CCc1ccccc1)N[C@H]1CCc2ccccc2N(CC(=O)O)C1=O` = 0.987

normalized growth measured on `O=C(O)c1c2ccccc2cc2ccccc12` = 1.03

normalized growth measured on `O=C(O)c1cc2ccccc2c(Cc2c(O)c(C(=O)O)cc3ccccc23)c1O` = 0.985

More entries:
normalized growth measured on ClC1=C(Cl)C2(Cl)C3C(Cl)C=CC3C1(Cl)C2(Cl)Cl (stereo unspecified) = 0.999

normalized growth measured on CCN(CCO)CCCC(C)Nc1ccnc2cc(Cl)ccc12 (stereo unspecified) = 1.01

normalized growth measured on N=c1ccn2c(n1)O[C@@H]1C2O[C@H](CO)[C@H]1O (stereo partly specified) = 1.01

normalized growth measured on `COc1cc(NS(=O)(=O)c2ccc(N)cc2)nc(OC)n1` = 0.98

normalized growth measured on CCN(CC)CCCC(C)Nc1c2ccc(Cl)cc2nc2ccc(OC)cc12 (stereo unspecified) = 0.802

normalized growth measured on CCN(CC)CCCC(C)Nc1ccnc2cc(Cl)ccc12 (stereo unspecified) = 1.01
